Test: Colloidal solubilization of corticosteroid with non-ionic surfactant and lecithin (Lipoid S 100)
Assay type: physicochemical
Conditions: pH 4.5, aqueous with cosolvent or surfactant or cyclodextrin, Vitamin E TPGS 0.25 wt.%, Lipoid S100 1.5 wt.%; read-out: Budesonide solubilized
Description: In analogy to example 2, colloidal solutions of budesonide were prepared using polysorbate 80 as non-ionic surfactant component (instead of tyloxapol) and lecithin of the commercial grade, Lipoid S 100, as phospholipid component. Citric acid and sodium citrate were used as buffer system to adjust the pH to 4.5. Sodium chloride (0.846% w/w) was used as osmotic excipient. Disodium edetate (0.01% w/w) was incorporated as stabilizer preventing oxidation. The taste of the samples was acceptable. […]
RECORDED METRIC: solubility (µg/mL)
Number only, in µg/mL; omit the unit.

For the molecule CCCC1O[C@@H]2C[C@H]3[C@@H]4CCC5=CC(=O)C=C[C@]5(C)[C@H]4[C@@H](O)C[C@]3(C)[C@]2(C(=O)CO)O1 (stereo partly shown) [Budesonide, budesonide] , what solubility is on record? 460

====

Assay: Colloidal solubilization of corticosteroid with non-ionic surfactant and lecithin (Lipoid S 100)
Format: physicochemical
Details: pH 4.5, aqueous with cosolvent or surfactant or cyclodextrin, Vitamin E TPGS 0.10 wt.%, Lipoid S100 1.5 wt.%; read-out: Budesonide solubilized
RECORDED METRIC: solubility (µg/mL)
Number only, in µg/mL; omit the unit.

For the molecule CCCC1O[C@@H]2C[C@H]3[C@@H]4CCC5=CC(=O)C=C[C@]5(C)[C@H]4[C@@H](O)C[C@]3(C)[C@]2(C(=O)CO)O1 (stereo partly shown) [Budesonide, budesonide] , what solubility is on record? 440

====

Assay: Colloidal solubilization of corticosteroid with non-ionic surfactant and lecithin (Lipoid S 100)
Type: physicochemical
Settings: pH 4.5, aqueous with cosolvent or surfactant or cyclodextrin, Polysorbate 80 0.40 wt.%, Lipoid S100 1.5 wt.%, pH 4.5; read-out: Budesonide solubilized
RECORDED METRIC: solubility (µg/mL)
Number only, in µg/mL; omit the unit.

For the molecule CCCC1O[C@@H]2C[C@H]3[C@@H]4CCC5=CC(=O)C=C[C@]5(C)[C@H]4[C@@H](O)C[C@]3(C)[C@]2(C(=O)CO)O1 (stereo partly shown) [Budesonide, budesonide] , what solubility is on record? 500

====

Assay: Colloidal solubilization of corticosteroid with non-ionic surfactant and lecithin (Lipoid S 100)
Type: physicochemical
Settings: pH 4.5, aqueous with cosolvent or surfactant or cyclodextrin, Vitamin E TPGS 0.10 wt.%, Lipoid S100 1.0 wt.%; read-out: Budesonide solubilized
RECORDED METRIC: solubility (µg/mL)
Number only, in µg/mL; omit the unit.

For the compound CCCC1O[C@@H]2C[C@H]3[C@@H]4CCC5=CC(=O)C=C[C@]5(C)[C@H]4[C@@H](O)C[C@]3(C)[C@]2(C(=O)CO)O1 (stereo partly shown) [Budesonide, budesonide] , what solubility is on record? 370

====

Test: Colloidal solubilization of corticosteroid with non-ionic surfactant and lecithin (Lipoid S 100)
Format: physicochemical
Settings: pH 4.5, aqueous with cosolvent or surfactant or cyclodextrin, Polysorbate 80 0.15 wt.%, Lipoid S100 1.5 wt.%, pH 4.5; read-out: Budesonide solubilized
RECORDED METRIC: solubility (µg/mL)
Number only, in µg/mL; omit the unit.

For the compound CCCC1O[C@@H]2C[C@H]3[C@@H]4CCC5=CC(=O)C=C[C@]5(C)[C@H]4[C@@H](O)C[C@]3(C)[C@]2(C(=O)CO)O1 (stereo partly shown) [Budesonide, budesonide] , what solubility is on record? 430

====

Test: Colloidal solubilization of corticosteroid with non-ionic surfactant and lecithin (Lipoid S 100)
Type: physicochemical
Conditions: pH 4.5, aqueous with cosolvent or surfactant or cyclodextrin, Polysorbate 80 0.50 wt.%, Lipoid S100 3.0 wt.%; read-out: Fluticasone prop. solubilized
RECORDED METRIC: solubility (µg/mL)
Number only, in µg/mL; omit the unit.

For the compound CCC(=O)O[C@]1(C(=O)SCF)[C@H](C)C[C@H]2[C@@H]3C[C@H](F)C4=CC(=O)C=C[C@]4(C)[C@@]3(F)[C@@H](O)C[C@@]21C [Fluticasone prop., fluticasone propionate] , what solubility is on record? 180

====

Test: Colloidal solubilization of corticosteroid with non-ionic surfactant and lecithin (Lipoid S 100)
Assay type: physicochemical
Conditions: pH 4.5, aqueous with cosolvent or surfactant or cyclodextrin, vitamin E TPGS 0.2 wt.-%, polysorbate 80 0.3 wt.-%, lecithin 3.0 wt.-%; read-out: Budesonide colloidally solubilized concentration
RECORDED METRIC: solubility (µg/mL)
Number only, in µg/mL; omit the unit.

For the molecule CCCC1O[C@@H]2C[C@H]3[C@@H]4CCC5=CC(=O)C=C[C@]5(C)[C@H]4[C@@H](O)C[C@]3(C)[C@]2(C(=O)CO)O1 (stereo partly shown) [Budesonide, budesonide] , what solubility is on record? 950

====

Assay: Saturation solubility of budesonide in buffered aqueous tyloxapol / DMPC solutions (0.22 μm filtrate)
Type: physicochemical
Details: buffered aqueous tyloxapol/DMPC solution, aqueous with cosolvent or surfactant or cyclodextrin, thermodynamic from solid, Tyloxapol 0 wt %, DMPC 1 wt %
RECORDED METRIC: solubility (µg/mL)
Number only, in µg/mL; omit the unit.

For the molecule CCCC1O[C@@H]2C[C@H]3[C@@H]4CCC5=CC(=O)C=C[C@]5(C)[C@H]4[C@@H](O)C[C@]3(C)[C@]2(C(=O)CO)O1 (stereo partly shown) [Budesonide, budesonide] , what solubility is on record? 20

====

Assay: Colloidal solubilization of corticosteroid with non-ionic surfactant and lecithin (Lipoid S 100)
Format: physicochemical
Conditions: pH 4.5, aqueous with cosolvent or surfactant or cyclodextrin, Polysorbate 80 0.10 wt.%, Lipoid S100 1.0 wt.%, pH 4.5; read-out: Budesonide solubilized
RECORDED METRIC: solubility

For the molecule CCCC1O[C@@H]2C[C@H]3[C@@H]4CCC5=CC(=O)C=C[C@]5(C)[C@H]4[C@@H](O)C[C@]3(C)[C@]2(C(=O)CO)O1 (stereo partly shown) [Budesonide, budesonide] , what solubility is on record? 360 µg/mL

====

Assay: Saturation solubility of budesonide in buffered aqueous tyloxapol / DMPC solutions (0.22 μm filtrate)
Format: physicochemical
Conditions: buffered aqueous tyloxapol/DMPC solution, aqueous with cosolvent or surfactant or cyclodextrin, thermodynamic from solid, Tyloxapol 1.5 wt %, DMPC 0 wt %
RECORDED METRIC: solubility (µg/mL)
Number only, in µg/mL; omit the unit.

For the compound CCCC1O[C@@H]2C[C@H]3[C@@H]4CCC5=CC(=O)C=C[C@]5(C)[C@H]4[C@@H](O)C[C@]3(C)[C@]2(C(=O)CO)O1 (stereo partly shown) [Budesonide, budesonide] , what solubility is on record? 204

====

Assay: Colloidal solubilization of corticosteroid with non-ionic surfactant and lecithin (Lipoid S 100)
Type: physicochemical
Details: pH 4.5, aqueous with cosolvent or surfactant or cyclodextrin, Solutrol HS 15 0.50 wt.%, Lipoid S100 1.5 wt.%; read-out: Budesonide solubilized
RECORDED METRIC: solubility

For the compound CCCC1O[C@@H]2C[C@H]3[C@@H]4CCC5=CC(=O)C=C[C@]5(C)[C@H]4[C@@H](O)C[C@]3(C)[C@]2(C(=O)CO)O1 (stereo partly shown) [Budesonide, budesonide] , what solubility is on record? 480 µg/mL

====

Assay: Colloidal solubilization of corticosteroid with non-ionic surfactant and lecithin (Lipoid S 100)
Type: physicochemical
Settings: pH 4.5, aqueous with cosolvent or surfactant or cyclodextrin, Polysorbate 80 0.25 wt.%, Lipoid S100 1.5 wt.%, pH 4.5; read-out: Budesonide solubilized
RECORDED METRIC: solubility
Enter the number, and then the unit.

For the compound CCCC1O[C@@H]2C[C@H]3[C@@H]4CCC5=CC(=O)C=C[C@]5(C)[C@H]4[C@@H](O)C[C@]3(C)[C@]2(C(=O)CO)O1 (stereo partly shown) [Budesonide, budesonide] , what solubility is on record? 470 µg/mL

====

Experiment: Colloidal solubilization of corticosteroid with non-ionic surfactant and lecithin (Lipoid S 100)
Assay type: physicochemical
Conditions: pH 4.5, aqueous with cosolvent or surfactant or cyclodextrin, Solutrol HS 15 0.25 wt.%, Lipoid S100 1.5 wt.%; read-out: Budesonide solubilized
RECORDED METRIC: solubility (µg/mL)
Number only, in µg/mL; omit the unit.

For the molecule CCCC1O[C@@H]2C[C@H]3[C@@H]4CCC5=CC(=O)C=C[C@]5(C)[C@H]4[C@@H](O)C[C@]3(C)[C@]2(C(=O)CO)O1 (stereo partly shown) [Budesonide, budesonide] , what solubility is on record? 470

====

Test: Colloidal solubilization of corticosteroid with non-ionic surfactant and lecithin (Lipoid S 100)
Format: physicochemical
Conditions: pH 4.5, aqueous with cosolvent or surfactant or cyclodextrin, Vitamin E TPGS 0.50 wt.%, Lipoid S100 1.5 wt.%; read-out: Budesonide solubilized
RECORDED METRIC: solubility (µg/mL)
Number only, in µg/mL; omit the unit.

For the compound CCCC1O[C@@H]2C[C@H]3[C@@H]4CCC5=CC(=O)C=C[C@]5(C)[C@H]4[C@@H](O)C[C@]3(C)[C@]2(C(=O)CO)O1 (stereo partly shown) [Budesonide, budesonide] , what solubility is on record? 480
